B1: Far upstream element-binding protein 2, residues 142 to 214; numbered along this chain, Q92945 (parent)
chain: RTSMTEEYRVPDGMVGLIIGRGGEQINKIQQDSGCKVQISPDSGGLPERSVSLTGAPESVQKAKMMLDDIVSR

Variants of: B1
ASSAY_NOTES: abundance fitness (aPCA) (normalised: wild type 0, dead -1); higher = more abundant; growth selection in yeast, the domain comes from the species named
TEST_CONTEXT: Homo sapiens
MEASUREMENT_TYPE: abundance fitness
I only need the number, thanks.

Observe how each entry below is paired with its result.
INSERT INTO results (sequence_change, measurement_type, endpoint_result) VALUES
  ('T54N', 'abundance fitness', -0.327),
  ('I26Y', 'abundance fitness', -0.769),
  ('K28M', 'abundance fitness', -0.085);

Next:
Entry N27A — recorded abundance fitness = -0.095
